assay_target: T1, IL-1beta (UniProt P01584 117-269)
T1 construct: also called IL-1β
assay_details: Biacore
observable: binding result

# binder, result
rows = [
    ("XPA23 Fab, heavy chain G102Y (Fab, V domains shown) VH: EVQLLESGGGLVQPGGSLRLSCAASGFTFSKYFMFWVRQAPGKGLEWVSVISPSGGMTRYADSVKGRFTISRDNSKNTLYLQMNSLRAEDTAVYYCARVGYYGNSDYWGQGTLVTVSS VL: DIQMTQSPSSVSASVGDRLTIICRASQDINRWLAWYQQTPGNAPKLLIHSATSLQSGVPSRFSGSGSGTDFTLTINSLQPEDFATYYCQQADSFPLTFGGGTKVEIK", "no binding"),
    ("XPA23 Fab, heavy chain T58K (Fab, V domains shown) VH: EVQLLESGGGLVQPGGSLRLSCAASGFTFSKYFMFWVRQAPGKGLEWVSVISPSGGMKRYADSVKGRFTISRDNSKNTLYLQMNSLRAEDTAVYYCARVGYGGNSDYWGQGTLVTVSS VL: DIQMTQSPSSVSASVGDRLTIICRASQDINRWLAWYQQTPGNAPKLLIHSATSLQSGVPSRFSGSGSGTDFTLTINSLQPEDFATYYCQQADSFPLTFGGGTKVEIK", "no binding"),
    ("XPA23 Fab, heavy chain S30E (Fab, V domains shown) VH: EVQLLESGGGLVQPGGSLRLSCAASGFTFEKYFMFWVRQAPGKGLEWVSVISPSGGMTRYADSVKGRFTISRDNSKNTLYLQMNSLRAEDTAVYYCARVGYGGNSDYWGQGTLVTVSS VL: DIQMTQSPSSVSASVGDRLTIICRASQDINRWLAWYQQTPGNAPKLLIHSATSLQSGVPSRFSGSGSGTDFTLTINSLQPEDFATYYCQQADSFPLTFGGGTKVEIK", "no binding"),
]

The values you see were collected from patent US20110118131A1.
